# MEASURED TARGET: Prostaglandin E2 receptor EP2 subtype (Homo sapiens)
# METHOD NOTES: EP2 receptor modulators, cAMP readout, primary screen, cell-based, HTRF cAMP, PGE2 stimulation (AID 940);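 also: rat C6 glioma line stably carrying human EP2 under a CMV promoter; the protocol text gives 20 µM as final concentration; 100% = response of wells given 1 µM PGE2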
# MEASUREMENT SETUP: EP2-expressing cells, cAMP HTRF FRET, PGE2 co-stimulation; at 25 µM; stronger effect = higher value
Screen size: about 260,000 compounds; about 2,200 (0.85%) were called active. The full list was thinned out, with actives kept by preference.
METRIC: induction

*Q* # returns recorded induction (system: Prostaglandin E2 receptor EP2 subtype (Homo sapiens)) for COc1ccccc1NC(=S)N(Cc1cc2c(C)cc(C)cc2[nH]c1=O)C1CCCC1
*A* 3.07% (inactive)

New cases:
*Q* For the record CCc1ncc(CNC2(c3ccc(Cl)cc3)CCC2)cn1 , what value of induction is listed for Prostaglandin E2 receptor EP2 subtype (Homo sapiens)?
*A* -47% (inactive)

*Q* CCc1nn(CC(=O)NC(C)c2ccccn2)c(=O)c2cc3ccsc3n12 (stereo unspecified) , same question.
*A* -14.5% (inactive)

*Q* COc1cccc(CN2CCC(C(=O)NC(C)(C)C)CC2)c1O , same question.
*A* -12.3% (inactive)

*Q* What about CCCOc1ccc(C2C(C(=O)Nc3ccccc3OC)=C(C)Nc3ncnn32)cc1 (stereo unspecified) ?
*A* 2.41% (inactive)

*Q* Try this compound too: Oc1ccc(/C=N/N(Cc2ccccc2)c2ccccc2)cc1
*A* 67.5% (active)

*Q* Note, next up: Cc1cc2c(s1)c1cnn(CC(=O)NC(C)C)c(=O)c1n2C
*A* -39.8% (inactive)

*Q* Repeat with COc1cccc(CN2CCN(C(=O)c3ccccn3)[C@@H](C)C2)c1
*A* -14.5% (inactive)

*Q* How about this compound: CC(=O)Nc1ccc(NC(=O)CN2CCCC(C)C2)c(Cl)c1 (stereo unspecified)
*A* -9.9% (inactive)

*Q* Same question, Clc1c(-c2nnc(-c3ccc(N4CCOCC4)cc3)o2)sc2ccccc12 this time
*A* -13.2% (inactive)

*Q* Similarly, O=C(CSc1nnc2c(n1)[nH]c1ccc(F)cc12)Nc1cccc2ccccc12 ?
*A* -43.9% (inactive)

*Q* Same again, this time with COc1ccc(CNC(=O)CCSc2nc(-c3ccco3)cc(C(F)(F)F)n2)cc1OC
*A* -21.3% (inactive)

*Q* Thanks! And Cc1ccccc1-c1n[nH]c(=S)n1C ?
*A* 25.6% (inactive)

*Q* Now consider COc1cccc(NC(=O)C(C)Oc2ccccc2)c1 (stereo unspecified) and answer again.
*A* 9.01% (inactive)

*Q* Let us now turn to O=C1Cc2ccccc2Sc2ccc(Cl)cc21
*A* 61.4% (active)

*Q* Cool, now Cc1nn(CC(=O)Nc2ccc(C#N)cc2)c(C)c1[N+](=O)[O-]
*A* 40.4% (inactive)

*Q* Follow-up entry: CCOC(=O)CNC(=O)CSc1nnnn1-c1cc(C)ccc1C
*A* -4.73% (inactive)

*Q* Subsequent entry: CCOC(=O)c1c(-c2ccc(C)cc2C)csc1NC(=O)CSc1nnnn1C
*A* 63.5% (active)
